Target: T1, human prolactin receptor (PRLR) (human, UniProt P16471 25-622)
T1 sequence: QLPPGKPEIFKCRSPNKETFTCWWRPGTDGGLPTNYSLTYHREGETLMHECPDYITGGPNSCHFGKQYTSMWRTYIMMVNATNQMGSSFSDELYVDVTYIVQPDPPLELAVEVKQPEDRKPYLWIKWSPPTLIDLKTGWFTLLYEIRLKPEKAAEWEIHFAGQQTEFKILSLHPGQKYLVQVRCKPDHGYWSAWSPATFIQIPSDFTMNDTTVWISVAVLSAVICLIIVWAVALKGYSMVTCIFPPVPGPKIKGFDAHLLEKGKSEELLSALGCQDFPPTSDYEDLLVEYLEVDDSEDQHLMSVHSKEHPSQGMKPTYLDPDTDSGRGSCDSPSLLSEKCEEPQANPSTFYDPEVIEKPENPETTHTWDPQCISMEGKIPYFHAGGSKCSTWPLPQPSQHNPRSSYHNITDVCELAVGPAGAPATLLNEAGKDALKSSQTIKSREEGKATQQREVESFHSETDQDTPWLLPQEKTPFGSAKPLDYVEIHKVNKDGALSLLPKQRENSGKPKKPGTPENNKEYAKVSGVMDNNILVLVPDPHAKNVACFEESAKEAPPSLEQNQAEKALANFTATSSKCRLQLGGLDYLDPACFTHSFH
Assay: cell-based or functional assay
Test Readout: IC50, cell viability, MCF7 cells (nM)
Respond numerically; units are nM and should not be typed.

I'd like to know its IC50, cell viability, MCF7 cells. The binder in question is H1H6975N-DM1 (antibody, human IgG1, V domains shown, DM1 conjugated through SMCC linker; attachment residues not stated) VH: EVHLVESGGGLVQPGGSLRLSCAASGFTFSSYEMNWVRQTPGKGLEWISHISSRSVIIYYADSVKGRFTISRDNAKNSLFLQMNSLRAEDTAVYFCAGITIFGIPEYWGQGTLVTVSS VL: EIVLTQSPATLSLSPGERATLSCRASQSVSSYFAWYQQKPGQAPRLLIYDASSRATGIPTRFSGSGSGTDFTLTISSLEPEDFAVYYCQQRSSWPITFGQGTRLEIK 150

I'd like to know its IC50, cell viability, MCF7 cells. The binder in question is H1H6793P-DM1 (antibody, human IgG1, V domains shown, DM1 conjugated through SMCC linker; attachment residues not stated) VH: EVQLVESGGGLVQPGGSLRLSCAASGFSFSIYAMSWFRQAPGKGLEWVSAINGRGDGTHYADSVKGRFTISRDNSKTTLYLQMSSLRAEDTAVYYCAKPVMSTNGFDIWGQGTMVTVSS VL: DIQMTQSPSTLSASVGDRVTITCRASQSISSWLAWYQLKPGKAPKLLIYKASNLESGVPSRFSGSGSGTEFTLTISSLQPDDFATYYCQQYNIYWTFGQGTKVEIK 125

I'd like to know its IC50, cell viability, MCF7 cells. The binder in question is H1H6762P-DM1 (antibody, human IgG1, V domains shown, DM1 conjugated through SMCC linker; attachment residues not stated) VH: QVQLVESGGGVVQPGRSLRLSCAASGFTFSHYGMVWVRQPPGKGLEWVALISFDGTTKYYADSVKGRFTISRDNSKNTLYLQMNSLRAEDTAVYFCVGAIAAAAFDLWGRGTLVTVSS VL: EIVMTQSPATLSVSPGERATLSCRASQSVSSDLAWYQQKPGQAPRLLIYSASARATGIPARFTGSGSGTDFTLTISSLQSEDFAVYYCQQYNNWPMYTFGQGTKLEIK 110

I'd like to know its IC50, cell viability, MCF7 cells. The binder in question is H1H6959N2-DM1 (antibody, human IgG1, V domains shown, DM1 conjugated through SMCC linker; attachment residues not stated) VH: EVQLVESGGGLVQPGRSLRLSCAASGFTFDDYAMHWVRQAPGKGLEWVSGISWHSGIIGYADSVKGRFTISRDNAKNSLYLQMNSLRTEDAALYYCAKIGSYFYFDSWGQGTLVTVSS VL: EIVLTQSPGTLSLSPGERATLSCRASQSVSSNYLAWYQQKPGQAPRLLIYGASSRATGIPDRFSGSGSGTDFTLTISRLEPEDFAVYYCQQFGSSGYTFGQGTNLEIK 100

I'd like to know its IC50, cell viability, MCF7 cells. The binder in question is H1H6765P-DM1 (antibody, human IgG1, V domains shown, DM1 conjugated through SMCC linker; attachment residues not stated) VH: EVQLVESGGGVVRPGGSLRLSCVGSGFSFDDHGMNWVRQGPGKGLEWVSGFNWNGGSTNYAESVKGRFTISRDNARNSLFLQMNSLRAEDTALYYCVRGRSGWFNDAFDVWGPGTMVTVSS VL: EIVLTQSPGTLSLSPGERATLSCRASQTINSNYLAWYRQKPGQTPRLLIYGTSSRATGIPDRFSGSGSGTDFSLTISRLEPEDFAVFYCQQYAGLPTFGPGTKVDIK 150

Values were extracted from patent US20180185504A1.
